Kindly supply the reported % blocked at maximum Ab tested (20 nM) values for the records listed here.
Target: T1, human GREM1 (hGREM1-His; SEQ ID NO: 595) (human, UniProt O60565 25-184)
T1 construct: also called biotin-hGREM1-His; recombinant human GREM1 protein
T1 sequence: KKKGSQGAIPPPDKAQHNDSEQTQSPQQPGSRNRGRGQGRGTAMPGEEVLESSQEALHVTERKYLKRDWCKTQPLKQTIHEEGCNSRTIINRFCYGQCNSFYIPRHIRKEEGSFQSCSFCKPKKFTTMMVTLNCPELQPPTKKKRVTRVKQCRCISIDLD
Experimental Details: competition ELISA, biotin-hGREM1-His (100 pM) binding to coated hBMP4
Numbers only here, please. The scale is %.

Entry H4H2889N (antibody, human IgG4, V domains shown, H4H prefix = human IgG4 Fc) VH: QVQLQESGPGLVKPSETLSLTCTVSGGSISNSYWSWIRQPPGKGLEWIGYIYYSGNTNYNPSLKSRVTISVDTSKNQFSLKLSSVTAADTAVYYCARVNDYSNYDSYYYGMDVWGQGTTVTVSS VL: AIQMTQSPSSLSASVGDRVTITCRASQGIRNDLGWYQQKPGKAPKLLIYAASSLQSGVPSRFSGSGSGTDFTLTISSLQPEDFATYYCLQDYNYPPTFGQGTKVDIK ; % blocked at maximum Ab tested (20 nM) = 86

Entry H4H6260P (antibody, human IgG4, V domains shown, H4H prefix = human IgG4 Fc) VH: QVQLVESGGGVVQPGRSLRLSCAASGFTFSTYGMHWVRQAPGKGLEWVAIIWYDGSNYYYADSVKGRFTISRDNSKNTLYLQMNSLRAEDTAVYYCAREDRNDVFDIWGQGTMVTVSS VL: EIVLTQSPATLSLSPGERATLSCRASQSVSSFLAWYQQKPGQAPRLLIYDSSNRATGIPARFSGSGSGTDFTLTISSLEPEDFAVYYCQQLSNWPPITFGQGTRLEIK ; % blocked at maximum Ab tested (20 nM) = 87

Entry H4H6245P (antibody, human IgG4, V domains shown, H4H prefix = human IgG4 Fc) VH: EVQLVESGGGLVQPGGSLRLSCAASGFTFNSFWMSWVRQAPGKGLEWVANIKQDGSEKYYVDSVKGRFTISRDNAKNSVYLQMNSLRAEDTAVYYCARDLVTSFDYWGQGTLVTVSS VL: DIQMTQSPSSLSASVGDRVTITCQASQDINNYLNWYQQKPGKAPKLLIYDASYLETGVPSGFSGSGSGTDFTFTISSLQPEDIATYYCQQYDSLPYTFGQGTKLEIK ; % blocked at maximum Ab tested (20 nM) = 96

Data provenance: patent US20200157194A1
